- Tested on: Estrogen receptor (Homo sapiens) (UniProt P03372)
- Sequence (P03372 whole entry, looked up): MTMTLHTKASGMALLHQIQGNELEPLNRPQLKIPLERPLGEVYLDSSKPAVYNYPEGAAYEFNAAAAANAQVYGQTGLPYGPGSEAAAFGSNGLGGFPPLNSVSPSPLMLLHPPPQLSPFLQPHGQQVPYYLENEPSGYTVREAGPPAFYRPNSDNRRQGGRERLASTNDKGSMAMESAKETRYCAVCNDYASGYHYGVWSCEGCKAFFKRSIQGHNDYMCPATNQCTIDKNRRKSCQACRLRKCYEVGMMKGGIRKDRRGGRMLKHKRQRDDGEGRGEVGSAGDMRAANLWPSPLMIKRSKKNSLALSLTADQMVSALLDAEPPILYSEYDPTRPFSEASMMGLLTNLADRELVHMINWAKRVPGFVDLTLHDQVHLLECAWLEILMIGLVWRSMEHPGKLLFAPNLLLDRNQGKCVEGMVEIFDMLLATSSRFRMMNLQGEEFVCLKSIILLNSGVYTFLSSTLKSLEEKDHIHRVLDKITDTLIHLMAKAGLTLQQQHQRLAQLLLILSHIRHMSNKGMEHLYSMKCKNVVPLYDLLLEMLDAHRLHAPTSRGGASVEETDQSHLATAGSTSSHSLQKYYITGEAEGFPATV
- Protocol summary: qHTS assay to identify small molecule antagonists of the estrogen receptor alpha (ER-alpha) signaling pathway (AID 743069); also: % is scaled to controls: 0 for no effect and ±100 for the full control effect
- Conditions used: HEK293 ER-alpha-UAS-bla, beta-lactamase ratio, antagonist mode; series mostly up to 69.4 µM
Inconclusive results are not listed. Calls of active or inactive are those of the source. Calls follow the shape of the dose curve; as a rule, active = well fitted curve in the direction sought with a large enough effect in the signal ratio in the repeat runs (not every such curve was filed as active); inconclusive = weak or mixed curves, or effect the other way; inactive = no such curve, though single readings can be large or run the other way; the % refers to the signal ratio. Non-standard residues stand in square brackets, D forms with d. Residues, ends and D or L forms follow the SMILES beside them. pGlu = O=C1CC[C@@H](C(=O)O)N1; Thz = O=C(O)[C@@H]1CSCN1
Readout: outcome

A selection of reference data follows.
| Molecule | Tested on | outcome |
| --- | --- | --- |
| O=P(O)(O)C(O)(Cc1cnc2ccccn12)P(=O)(O)O | Estrogen receptor (Homo sapiens) (UniProt P03372) | inactive |
| O=C1CC[C@@H](C(=O)N2CSC[C@H]2C(=O)O)N1 ([pGlu]-[Thz]-OH) | Estrogen receptor (Homo sapiens) (UniProt P03372) | inactive |
| CCC(C)[C@@H](N)C(=O)O (stereo not given in full) | Estrogen receptor (Homo sapiens) (UniProt P03372) | inactive |
| CO/N=C(\C(=O)N[C@@H]1C(=O)N2C(C(=O)O)=CCS[C@H]12)c1csc(N)n1 | Estrogen receptor (Homo sapiens) (UniProt P03372) | inactive |

In the following, a different molecule is considered.
Query block: Dear colleague, I am looking for the recorded outcome of the following molecule: Cc1nnc(C(C)C)n1C1C[C@H]2CC[C@@H](C1)N2CC[C@H](NC(=O)C1CCC(F)(F)CC1)c1ccccc1 (stereo not given in full)
Result block: inactive

---

- Tested on: Androgen receptor (Homo sapiens) (UniProt P10275)
- Sequence (P10275 whole entry, looked up): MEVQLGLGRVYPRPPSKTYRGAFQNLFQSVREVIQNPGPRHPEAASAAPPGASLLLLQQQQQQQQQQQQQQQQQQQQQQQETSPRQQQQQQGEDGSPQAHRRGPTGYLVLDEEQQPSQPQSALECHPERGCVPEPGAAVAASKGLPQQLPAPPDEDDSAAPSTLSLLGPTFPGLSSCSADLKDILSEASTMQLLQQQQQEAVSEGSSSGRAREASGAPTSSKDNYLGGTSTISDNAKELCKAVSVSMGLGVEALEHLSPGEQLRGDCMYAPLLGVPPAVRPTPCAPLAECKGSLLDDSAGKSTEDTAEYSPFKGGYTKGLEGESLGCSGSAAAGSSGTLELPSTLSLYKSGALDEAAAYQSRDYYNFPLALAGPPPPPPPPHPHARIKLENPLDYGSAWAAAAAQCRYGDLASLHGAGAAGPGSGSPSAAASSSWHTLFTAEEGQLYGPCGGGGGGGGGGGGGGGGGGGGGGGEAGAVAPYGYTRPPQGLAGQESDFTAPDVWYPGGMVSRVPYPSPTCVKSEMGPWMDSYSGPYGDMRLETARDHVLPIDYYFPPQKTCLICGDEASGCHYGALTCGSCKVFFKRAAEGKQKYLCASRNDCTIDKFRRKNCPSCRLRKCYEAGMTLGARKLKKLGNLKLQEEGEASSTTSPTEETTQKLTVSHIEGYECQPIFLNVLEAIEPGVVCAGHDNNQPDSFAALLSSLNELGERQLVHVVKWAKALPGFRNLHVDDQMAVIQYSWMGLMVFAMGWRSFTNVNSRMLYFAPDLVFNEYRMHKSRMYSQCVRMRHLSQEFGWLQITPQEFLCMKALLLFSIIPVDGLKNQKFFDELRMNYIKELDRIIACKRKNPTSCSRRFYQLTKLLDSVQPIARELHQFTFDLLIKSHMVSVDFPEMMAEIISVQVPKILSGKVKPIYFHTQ
- Protocol summary: qHTS assay to identify small molecule agonists of the androgen receptor (AR) signaling pathway (AID 743036); also: % is scaled to controls: 0 for no effect and ±100 for the full control effect
- Conditions used: HEK293 AR-UAS-bla GripTite, beta-lactamase FRET ratio, 16 h; series mostly up to 62.4 µM
Records with an inconclusive call do not appear. Calls of active or inactive are those of the source. The call rests on the fitted dose curve; in most records, active means well fitted activation curve with a large enough effect in the signal ratio in the repeat runs, with a control signal flat (not every such curve was filed as active); inconclusive means weak or mixed curves, or effect the other way; inactive means no such curve, though single readings can be large or run the other way; the % refers to the signal ratio.
Readout: outcome

A selection of reference data follows.
| Structure smiles string | Readout | Reported measurement |
| --- | --- | --- |
| CC(C)[C@@H]1CC[C@@H](C)C[C@H]1OC(=O)c1ccccc1O | outcome | inactive |
| CCCCCCCCCCCCCC[n+]1ccc(C)cc1 | outcome | inactive |
| COc1ccc2c(=O)c(C)c(-c3ccccc3)oc2c1CN(C)C | outcome | inactive |
| O=C(O)c1cc(N=Nc2ccc(O)c(C(=O)O)c2)ccc1O | outcome | inactive |

Query block: Item: `C=C1CC[C@H](O)CC1=C/C=C1\CCC[C@]2(C)[C@@H]([C@H](C)CC[C@@H](O)C(C)(C)O)CC[C@@H]12` Test system: Androgen receptor (Homo sapiens) (UniProt P10275) Read-out: outcome Value: ?
Result block: inactive

---

- Protocol summary: qHTS assay for identifying genotoxic compounds that show differential cytotoxicity against isogenic chicken DT40 cell lines with known DNA damage response pathways - wild type cell line (AID 743012); also: nearly all actives have a fitted effect of over 60% in size
- Conditions used: DT40 wild type chicken cells viability, CellTiter-Glo, 40 h; series mostly up to 68.4 µM
Inconclusive results are not listed. Calls of active or inactive are those of the source. Calls come from the whole dose curve; as a rule, active = well fitted cell-killing curve with a large enough effect in the repeat runs; inconclusive = weak or mixed curves, or effect the other way; inactive = no such curve, though single readings can be large or run the other way.
Give your call using only these classes: label 1 = active, label 0 = inactive

| Structure smiles string | Assigned category |
| --- | --- |
| CN[C@H]1CCc2cc(OC)c(OC)c(OC)c2-c2ccc(OC)c(=O)cc21 | label 1 |
| C[C@H]1[C@@H](OC(=O)CCC(=O)O)O[C@@H]2OC3(C)CC[C@H]4[C@H](C)CC[C@@H]1[C@@]24OO3 | label 1 |

Please look at the following compound next.
Query block: Identify the outcome logged in this assay for the compound shown: `CO[C@H]1C[C@H](O[C@@H]2/C(C)=C/C[C@@H]3C[C@@H](C[C@]4(CC[C@H](C)[C@@H](C5CCCCC5)O4)O3)OC(=O)[C@@H]3C=C(C)/C(=N/O)[C@H]4OC/C(=C\C=C\[C@@H]2C)[C@]43O)O[C@@H](C)[C@@H]1O`
Result block: label 0

---

- Tested on: Glucocorticoid receptor (Homo sapiens) (UniProt P04150)
- Sequence (P04150 whole entry, looked up): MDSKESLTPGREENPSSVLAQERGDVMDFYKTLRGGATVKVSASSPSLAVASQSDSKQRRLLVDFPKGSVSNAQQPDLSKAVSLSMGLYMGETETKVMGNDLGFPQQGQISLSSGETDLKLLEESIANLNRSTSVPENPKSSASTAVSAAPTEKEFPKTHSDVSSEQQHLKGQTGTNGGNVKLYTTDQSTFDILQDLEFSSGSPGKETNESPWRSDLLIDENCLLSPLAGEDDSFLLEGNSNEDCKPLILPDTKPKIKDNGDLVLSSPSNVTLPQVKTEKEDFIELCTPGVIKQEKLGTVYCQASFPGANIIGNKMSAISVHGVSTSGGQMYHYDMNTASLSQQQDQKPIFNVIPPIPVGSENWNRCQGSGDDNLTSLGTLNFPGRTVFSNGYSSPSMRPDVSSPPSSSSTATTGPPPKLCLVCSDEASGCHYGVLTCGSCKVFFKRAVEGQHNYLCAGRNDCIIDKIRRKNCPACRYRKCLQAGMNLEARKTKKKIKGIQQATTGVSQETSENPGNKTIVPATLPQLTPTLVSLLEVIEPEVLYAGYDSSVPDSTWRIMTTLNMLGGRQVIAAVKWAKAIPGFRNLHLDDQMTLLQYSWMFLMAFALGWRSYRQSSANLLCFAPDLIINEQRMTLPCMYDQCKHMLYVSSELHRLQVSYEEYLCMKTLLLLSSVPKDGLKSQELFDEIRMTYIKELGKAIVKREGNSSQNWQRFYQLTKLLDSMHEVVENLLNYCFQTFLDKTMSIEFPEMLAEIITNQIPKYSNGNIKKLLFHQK
- Protocol summary: qHTS assay to identify small molecule agonists of the glucocorticoid receptor (GR) signaling pathway (AID 720691); as to activation: % is scaled to controls: 0 for no effect and ±100 for the full control effect
- Conditions used: GR-bla HeLa, beta-lactamase reporter ratio, 18 h
- From the text: U.S. Tox21 Program National Center for Advancing Translational Sciences [NCATS] NIH Chemical Genomics Center [NCGC] U.S. Environmental Protection Agency [EPA] National Institutes of Environmental Health Sciences [NIEHS] National Toxicology Program [NTP] U.S. Food and Drug Administration [FDA] […] The activation of the reporter gene under culture conditions can be detected by fluorescence intensity. […]
Active and inactive are the calls of the source. Calls come from the whole dose curve; as a rule, active = well fitted activation curve with a large enough effect in the signal ratio in the repeat runs (not every such curve was filed as active); inconclusive = weak or mixed curves, or effect the other way; inactive = no such curve, though single readings can be large or run the other way; the % refers to the signal ratio.
Give your call using only these classes: yes for active, no for inactive

Solved cases below.
| Molecule | Assigned category |
| --- | --- |
| COc1ccc(/C=C/C(=O)OCCC(C)C)cc1 | no |
| COc1ccc2cc([C@H](C)CO)ccc2c1 | no |

Query block: Identify the outcome logged in this assay for the molecule shown: `CC[C@@]1(O)C[C@H](O[C@H]2C[C@H](N(C)C)[C@H](O[C@H]3C[C@H](O)[C@H](O[C@H]4CCC(=O)[C@H](C)O4)[C@H](C)O3)[C@H](C)O2)c2c(cc3c(c2O)C(=O)c2c(O)cccc2C3=O)[C@H]1C(=O)OC`
Result block: yes

---

- Protocol summary: qHTS assay to identify small molecule antagonists of the estrogen receptor alpha (ER-alpha) signaling pathway using the BG1 cell line - cell viability counter screen (AID 743081);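 also: compound given together with 17beta-estradiol as the ER stimulus; nearly all actives have a fitted effect of over 45% in size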
- Conditions used: BG1Luc4E2 viability, CellTiter-Fluor, 22 h; series mostly up to 70.3 µM
Records with an inconclusive call do not appear. Calls of active or inactive are those of the source. Calls come from the whole dose curve; as a rule, active = well fitted cell-killing curve with a large enough effect in the repeat runs; inconclusive = weak or mixed curves, or effect the other way; inactive = flat fitted curve, though single readings scatter.
Give your call using only these classes: active, inactive

| Molecule | Assigned category |
| --- | --- |
| CC(C)CCC[C@@H](C)[C@H]1CC(=O)C2=C3CC[C@H]4C[C@@H](O)CC[C@]4(C)[C@H]3CC[C@@]21C | inactive |

Query block: Identify the outcome logged in this assay for the molecule shown: `O=C(O)c1c(Cl)c(Cl)c(Cl)c(Cl)c1-c1c2cc(I)c(=O)c(I)c-2oc2c(I)c(O)c(I)cc12`
Result block: active

Query block: Same thing, different molecule: `CC1(C)S[C@@H]2[C@H](NC(=O)[C@H](N)c3ccccc3)C(=O)N2[C@H]1C(=O)OCOC(=O)[C@@H]1N2C(=O)C[C@H]2S(=O)(=O)C1(C)C`
Result block: inactive

Query block: Same thing, different molecule: `COC(=O)[C@H]1[C@H]2C[C@@H]3c4[nH]c5cc(OC)ccc5c4CCN3C[C@H]2C[C@H](OC)[C@@H]1OC`
Result block: inactive

Query block: Same thing, different molecule: `CO[C@H]1O[C@@H]2O[C@@]3(C)CC[C@H]4[C@H](C)CC[C@@H]([C@H]1C)[C@@]24OO3`
Result block: inactive

Query block: Same thing, different molecule: `CC(C)N=c1cc2n(-c3ccc(Cl)cc3)c3ccccc3nc-2cc1Nc1ccc(Cl)cc1`
Result block: active

Query block: Same thing, different molecule: CC#CCC(C)[C@H](O)/C=C/[C@@H]1[C@H]2c3cccc(CCCC(=O)O)c3O[C@H]2C[C@H]1O (some centres not stated)
Result block: inactive

---

- Protocol summary: qHTS assay for identifying genotoxic compounds that show differential cytotoxicity against isogenic chicken DT40 cell lines with known DNA damage response pathways - Rev3 mutant cell line (AID 743014); also: nearly all actives have a fitted effect of over 55% in size
- Conditions used: chicken DT40 Rev3-/- viability, CellTiter-Glo, 40 h; series mostly up to 68.4 µM
Results filed as inconclusive are left out. Calls of active or inactive are those of the source. The call rests on the fitted dose curve; in most records, active means well fitted cell-killing curve with a large enough effect in the repeat runs; inconclusive means weak or mixed curves, or effect the other way; inactive means no such curve, though single readings can be large or run the other way. Positions of bridges follow the written chain, without caps; N, C: chain ends. Non-standard residues stand in square brackets, D forms with d. Residues, ends and D or L forms follow the SMILES beside them. *: point of attachment. X2 = CC[C@H](C)CCCCC(=O)*; Dab = NCC[C@H](N)C(=O)O
Give your call using only these classes: 1 (yes) = active, 0 (no) = inactive

| Compound | Assigned category |
| --- | --- |
| O=C(O)c1c(Cl)c(Cl)c(Cl)c(Cl)c1-c1c2cc(I)c(=O)c(I)c-2oc2c(I)c(O)c(I)cc12 | 0 (no) |
| Cc1cc(O)c2c(c1)O[C@@]1(C)CC[C@H]3C(C)(C)CCCC34CO[C@@H]2[C@H]41 (stereo partly specified) | 1 (yes) |
| Cc1cc(C(=O)NNCc2ccccc2)no1 | 0 (no) |

Query block: Identify the outcome logged in this assay for the compound shown: `CC(=O)O[C@H]1C(=O)[C@@]2(C)[C@H]([C@H](OC(=O)c3ccccc3)[C@]3(O)C[C@H](OC(=O)[C@H](O)[C@@H](NC(=O)c4ccccc4)c4ccccc4)C(C)=C1C3(C)C)[C@]1(OC(C)=O)CO[C@@H]1C[C@@H]2O`
Result block: 1 (yes)

Query block: Same thing, different compound: `CO[C@H]1C=CO[C@@]2(C)Oc3c(C)c(O)c4c(O)c(c(/C=N/N5CCN(C6CCCC6)CC5)c(O)c4c3C2=O)NC(=O)/C(C)=C\C=C[C@H](C)[C@H](O)[C@@H](C)[C@@H](O)[C@@H](C)[C@H](OC(C)=O)[C@@H]1C`
Result block: 1 (yes)

Query block: Same thing, different compound: C/C=C1\NC(=O)[C@H]2CSSCC/C=C/[C@H](CC(=O)N[C@H](C(C)C)C(=O)N2)OC(=O)C(C(C)C)NC1=O (stereo partly specified)
Result block: 1 (yes)

Query block: Same thing, different compound: `CCCCCCCCCCCCCCCC(=O)OCCC1CCN(CCCN2c3ccccc3Sc3ccc(S(=O)(=O)N(C)C)cc32)CC1`
Result block: 0 (no)

Query block: Same thing, different compound: `CCCCCCCCCCCCCCCCCC[N+](C)(C)CCC[Si](OC)(OC)OC`
Result block: 1 (yes)

Query block: Same thing, different compound: C[C@@H]1CCC2[C@@H](C)[C@@H](O)O[C@@H]3O[C@@]4(C)CC[C@@H]1[C@@]23OO4 (stereo partly specified)
Result block: 1 (yes)

Query block: Same thing, different compound: `CC[C@H](CC[C@@H](C)[C@H]1CC[C@H]2[C@@H]3CC=C4C[C@@H](O)CC[C@]4(C)[C@H]3CC[C@]12C)C(C)C`
Result block: 0 (no)

Query block: Same thing, different compound: `Nc1nc(=O)n([C@@H]2CS[C@H](CO)O2)cc1F`
Result block: 0 (no)

Query block: Same thing, different compound: CC[C@H](C)CCCCC(=O)N[C@@H](CCN)C(=O)N[C@H](C(=O)N[C@@H](CCN)C(=O)N[C@H]1CCNC(=O)[C@H]([C@@H](C)O)NC(=O)[C@H](CCN)NC(=O)[C@H](CCN)NC(=O)[C@H](CC(C)C)NC(=O)[C@@H](CC(C)C)NC(=O)[C@H](CCN)NC1=O)[C@@H](C)O (X2-[Dab]T[Dab][Dab][Dab][dL]L[Dab][Dab]T; lactam 4-C)
Result block: 0 (no)

Query block: Same thing, different compound: `CN(C)CCC=C1c2ccccc2C(C)(C)c2ccccc21`
Result block: 1 (yes)

Query block: Same thing, different compound: `CC(=O)[C@@]1(O)CC[C@H]2[C@@H]3C=C(Cl)C4=CC(=O)[C@@H]5C[C@@H]5[C@]4(C)[C@H]3CC[C@@]21C`
Result block: 0 (no)

Query block: Same thing, different compound: COc1cc(S(C)=O)ccc1-c1nc2ncccc2[nH]1 (stereo unspecified)
Result block: 0 (no)

Query block: Same thing, different compound: `COc1ccc2cc([C@H](C)CO)ccc2c1`
Result block: 0 (no)

Query block: Same thing, different compound: `O=C(O)[C@H]1/C(=C/CO)O[C@@H]2CC(=O)N21`
Result block: 0 (no)

Query block: Same thing, different compound: `COc1cc(-c2ccc(-[n+]3nc(-c4ccccc4)nn3-c3ccc([N+](=O)[O-])cc3)c(OC)c2)ccc1-[n+]1nc(-c2ccccc2)nn1-c1ccc([N+](=O)[O-])cc1`
Result block: 1 (yes)
